tested on: Hs-294T; assay: Antiproliferative activity by sulforhodamine B assay, Hs-294T; assay type: cell-based; details: 72 h, SRB
readoutKind: IC50 (nM)
// return numeric value only (unit: nM, not printed)

Ask | Form field: reported IC50 of [NH2][Pt]([NH2])([Cl])[Cl] [CDDP, Cisplatin, reference compound]
Reply | 2170

###

tested on: MCF-10A; assay: Antiproliferative activity by sulforhodamine B assay, MCF-10A; format: cell-based; conditions: Homo sapiens, read-out: proliferation inhibition at 100µM (reported if IC50 > 100 µM), 100 µM, 72 h, SRB
readoutKind: inhibition at 100 µM (%)
Report only the number, with the unit % understood.

# chemSmiles, readoutKind, observedMeasurement
measured = [
    ("C/C(=N\\NC(N)=S)c1ccc(B(O)O)cc1", "inhibition at 100 µM", 32.8),
]

From here, focus on the item given below.
Ask | Reported inhibition at 100 µM for `NC(=S)NN=Cc1cccc(B(O)O)c1` : what is it?
Reply | 30.7

###

tested on: SK-MEL-3; experiment: Antiproliferative activity by sulforhodamine B assay, SK-MEL-3; type: cell-based; details: SK-MEL-3, 72 h, SRB
readoutKind: IC50 (µM)
Hi! Could you send only the number? It should be in µM, unit omitted.

Ask | Find the recorded IC50 belonging to [NH2][Pt]([NH2])([Cl])[Cl] [CDDP, Cisplatin, reference compound] and report it.
Reply | 15

###

Form field: inhibition at 100 µM (one value per entry).
tested on: SK-MEL-3; assay: Antiproliferative activity by sulforhodamine B assay, SK-MEL-3; type: cell-based; conditions: Homo sapiens, SK-MEL3, read-out: proliferation inhibition at 100µM (reported if IC50 > 100 µM); SK-MEL-3, 100 µM, 72 h, SRB
Your answer should be a plain number; it is taken to be in %.

Here are 3 compounds together with their reported answers.
# chemSmiles, testSystem, readingUnit, inhibition at 100 µM
records = [
    ("NC(=S)N/N=C/c1ccc(B(O)O)cc1", "SK-MEL-3", "%", 31.8),
    ("C/C(=N\\NC(N)=S)c1ccc(B(O)O)cc1", "SK-MEL-3", "%", 37.3),
    ("NC(=S)N1N=Cc2ccccc2B1O", "SK-MEL-3", "%", 43.4),
]

# context switch: different compound, same inhibition at 100 µM
Ask | # inhibition at 100 µM lookup, item `NC(=S)NN=Cc1cccc(B(O)O)c1`
Reply | 50.7

###

The compounds listed here are annotated with their inhibition at 100 µM.
test system: MCF-10A; assay: Antiproliferative activity by sulforhodamine B assay, MCF-10A; format: cell-based; settings: Homo sapiens, read-out: proliferation inhibition at 100µM (reported if IC50 > 100 µM), 100 µM, 72 h, SRB
Kindly provide the numeric value in % only, without the unit symbol.

Worked examples, 2 compounds total:
# chemSmiles, readoutKind, readingUnit, observedMeasurement
measured = [
    ("NC(=S)N1N=Cc2ccccc2B1O", "inhibition at 100 µM", "%", 42.7),
    ("NC(=S)N/N=C/c1ccc(B(O)O)cc1", "inhibition at 100 µM", "%", 31.7),
]

Then there is this compound:
Ask | Give the measured inhibition at 100 µM of `C/C(=N\NC(N)=S)c1cccc(B(O)O)c1` .
Reply | 37.1
